- Target system: HEWL amyloid (Gallus gallus)
- Construct: Lyophilized HEWL was dissolved at 10 mg/mL in 10 mM pH 3 sodium citrate buffer with 0.1 M NaCl; purchased Sigma-Aldrich; host or cells: hen egg white; fibrillised in house (pH 3, 70 °C, stirred)
- Sequence (P00698 19-147): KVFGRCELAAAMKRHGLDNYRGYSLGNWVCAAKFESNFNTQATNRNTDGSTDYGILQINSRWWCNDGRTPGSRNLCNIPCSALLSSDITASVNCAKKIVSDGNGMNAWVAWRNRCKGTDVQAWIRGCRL
- Assay remarks: Binding saturation assay of PEs to HEWL amyloid (Hill fit)
- Parameters: species or system hen
pKd: −log10 of the molar value.
Property measured: pKd

[[record]]
smiles_repr = "CCOC(=O)c1ccc(C#Cc2cc(OCC[N+](C)(C)C)c(C#Cc3ccc(C#Cc4cc(OCC[N+](C)(C)C)c(C#Cc5ccc(C(=O)OCC)cc5)cc4OCC[N+](C)(C)C)cc3)cc2OCC[N+](C)(C)C)cc1"
target_system = "HEWL amyloid (Gallus gallus)"
property_measured = "pKd"
result = 5.94

